assay: Cytotoxicity against multidrug-resistant human 2008/17/4 cells assessed as cell viability after 96 hrs by trypan blue exclusion; format: functional, cell-based
pIC50: −log10 of the molar value.

# compound, pIC50
measured = [
    ("COc1cc(OC)c(/C=C/S(=O)(=O)Cc2ccc(OC)c(N)c2)c(OC)c1", 8.52),
    ("COc1cc(OC)c(/C=C/S(=O)(=O)Cc2ccc(OC)c(NCC(=O)[O-])c2)c(OC)c1.[Na+] [RIGOSERTIB SODIUM]", 7.00),
]

---

assay: Cytotoxicity against human HCC1428 cells after 96 hrs by trypan blue exclusion assay; type: functional, cell-based; settings: HCC1428, 96 h
pIC50: −log10 of the molar value.
readout.kind: pIC50

# compound, readout.kind, test.value
rows = [
    ("COc1cc(OC)c(/C=C/S(=O)(=O)Cc2ccc(OC)c(NCC(=O)[O-])c2)c(OC)c1.[Na+] [RIGOSERTIB SODIUM]", "pIC50", 7.22),
]

From: ChEMBL document CHEMBL2010670
